assay: log P (neutral) by HPLC on reversed-phase column (C 18), EEC Directive 79/831 Annex V.A8; type: physicochemical; conditions: reversed-phase HPLC column (C 18); HPLC reversed-phase C 18, 55° C., neutral range pH 7.8, ammonium hydrogencarbonate/acetonitrile
Assay readout: chromatographic logP
Provide a numeric answer; units are not to be included.

[[record]]
compound = "CCS(=O)(=O)c1ccc(-n2cnn(-c3ccccc3F)c2=O)nc1-c1cn2cnc(C(F)(F)F)cc2n1 [Example I-35]"
recorded_measurement = 3.16


Task: Given the entry CCS(=O)(=O)c1ccc(-n2ncn(-c3ccc(Cl)cc3)c2=O)nc1-c1nc2cc(C(F)(F)F)cnc2n1C [Example I-33] , report its measured chromatographic logP.
Output: 3.52

Task: Given the entry CCS(=O)(=O)c1ccc(-c2ccn(-c3cccnc3)n2)nc1-c1nc2cc(C(F)(F)F)ncc2n1C [Example I-30] , report its measured chromatographic logP.
Output: 2.73

Task: Given the entry CCS(=O)(=O)c1ccc(-n2cnn(-c3ccc(Cl)cc3Cl)c2=O)nc1-c1nc2cc(C(F)(F)F)ncc2n1C [Example I-2] , report its measured chromatographic logP.
Output: 3.71

----------
Reported efficacy (spider mites killed) by item:
test system: greenhouse red spider mite (Tetranychus urticae); assay: Tetranychus urticae - spray test, OP-resistant; format: in vivo; conditions: application rate 500 g/ha, bean leaf discs, after 6 days
The answer is to be given in %; state only the numeric part.

Solved cases (3 shown):
[[record]]
smiles_structure = "CCS(=O)(=O)c1ccc(-n2cnn(-c3ccccc3F)c2=O)nc1-c1nc2cc(C(F)(F)F)ncc2n1C"
assay_readout = "efficacy (spider mites killed)"
recorded_measurement = 100

[[record]]
smiles_structure = "CCS(=O)(=O)c1ccc(-n2ncn(-c3cccnc3)c2=O)nc1-c1nc2cc(C(F)(F)F)ncc2n1C"
assay_readout = "efficacy (spider mites killed)"
recorded_measurement = 90

[[record]]
smiles_structure = "CCS(=O)(=O)c1ccc(-n2ncn(-c3ccccc3)c2=O)nc1-c1nc2cc(C(F)(F)F)ncc2n1C"
assay_readout = "efficacy (spider mites killed)"
recorded_measurement = 70


From here, focus on the item given below.
Task: Please tell me: efficacy (spider mites killed) of CCS(=O)(=O)c1ccc(-n2ncn(-c3ccc(Cl)cc3)c2=O)nc1-c1nc2cc(C(F)(F)F)cnc2n1C , system greenhouse red spider mite (Tetranychus urticae)?
Output: 90
